Target desc: SARS-CoV-2 E protein (2-E) (Severe acute respiratory syndrome coronavirus 2)
Method notes: cell-based
Measure: IC50

Q) Please look up its IC50: CC(N)C12CC3CC(CC(C3)C1)C2 (stereo not shown)
A) 8.9 µM

###

Target desc: SARS-CoV-2 E protein (2-E) (Severe acute respiratory syndrome coronavirus 2, UniProt P0DTC4)
Sequence (P0DTC4 whole entry): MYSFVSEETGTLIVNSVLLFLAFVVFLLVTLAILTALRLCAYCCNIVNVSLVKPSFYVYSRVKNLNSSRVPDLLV
Method notes: cell-based
Condition notes: read-out: IC50, cell viability assay, 2-E protein
Catalogue of compounds with associated IC50
Write the answer as a number in µM, unit excluded.

Q) # get_value(readout='IC50', item= `NC12CC3CC(CC(C3)C1)C2` )
A) 89

Q) Similarly, NC(N)=NC(=O)c1nc(Cl)c(N2CCCCCC2)nc1N [HMA, 5-(N,N-hexamethylene)amiloride] ?
A) 1.5

###

Target desc: SARS-CoV-2 E protein (2-E) (Severe acute respiratory syndrome coronavirus 2, UniProt P0DTC4)
Method notes: cell-based
Format: biochemical
Condition notes: read-out: IC50, patch-clamp electrophysiology, 2-E
Measure: IC50
Remember to quote the unit after the number.

Here's what some known entries look like.
NC12CC3CC(CC(C3)C1)C2: 24.1 nM
NC(N)=NC(=O)c1nc(Cl)c(N2CCCCCC2)nc1N [HMA, 5-(N,N-hexamethylene)amiloride]: 1.9 nM

Consider the additional molecule presented here.
Q) Consider the molecule shown here: CCC(C)C1OC2(CCC1C)CC1CC(CC=C(C)C(O)C(C)C=CC=C3COC4C(O)C(C)=CC(C(=O)O1)C34O)O2 (stereo not drawn) What is its recorded IC50?
A) 5 nM
